# assay-info: total protein half-life in vivo (active degradation + dilution); higher = more stable protein
# test-settings: wild type E. coli NCM3722; growth: P-lim chemostat; doubling time 12 h
Classification field: 1 (yes) = total protein half-life in vivo at or over 10 h; 0 (no) = total protein half-life in vivo under 10 h.

construct-sequence | class-name
MEALGMIETRGLVALIEASDAMVKAARVKLVGVKQIGGGLCTAMVRGDVAACKAATDAGAAAAQRIGELVSVHVIPRPHGDLEEVFPIGLKGDSSNL [P0ABF4] | 1 (yes)
MIPEKRIIRRIQSGGCAIHCQDCSISQLCIPFTLNEHELDQLDNIIERKKPIQKGQTLFKAGDELKSLYAIRSGTIKSYTITEQGDEQITGFHLAGDLVGFDAIGSGHHPSFAQALETSMVCEIPFETLDDLSGKMPNLRQQMMRLMSGEIKGDQDMILLLSKKNAEERLAAFIYNLSRRFAQRGFSPREFRLTMTRGDIGNYLGLTVETISRLLGRFQKSGMLAVKGKYITIENNDALAQLAGHTRNVA [P0A9E5] | 0 (no)
MKNKLPPFIEIYRALIATPSISATEEALDQSNADLITLLADWFKDLGFNVEVQPVPGTRNKFNMLASIGQGAGGLLLAGHTDTVPFDDGRWTRDPFTLTEHDGKLYGLGTADMKGFFAFILDALRDVDVTKLKKPLYILATADEETSMAGARYFAETTALRPDCAIIGEPTSLQPVRAHKGHISNAIRIQGQSGHSSDPARGVNAIELMHDAIGHILQLRDNLKERYHYEAFTVPYPTLNLGHIHGGDASNRICACCELHMDIRPLPGMTLNELNGLLNDALAPVSERWPGRLTVDELHPPIPGYECPPNHQLVEVVEKLLGAKTEVVNYCTEAPFIQTLCPTLVLGPGSINQAHQPDEYLETRFIKPTRELITQVIHHFCWH | 1 (yes)
MPHNPIRVVVGPANYFSHPGSFNHLHDFFTDEQLSRAVWIYGKRAIAAAQTKLPPAFGLPGAKHILFRGHCSESDVQQLAAESGDDRSVVIGVGGGALLDTAKALARRLGLPFVAVPTIAATCAAWTPLSVWYNDAGQALHYEIFDDANFMVLVEPEIILNAPQQYLLAGIGDTLAKWYEAVVLAPQPETLPLTVRLGINNAQAIRDVLLNSSEQALSDQQNQQLTQSFCDVVDAIIAGGGMVGGLGDRFTRVAAAHAVHNGLTVLPQTEKFLHGTKVAYGILVQSALLGQDDVLAQLTGAYQRFHLPTTLAELEVDINNQAEIDKVIAHTLRPVESIHYLPVTLTPDTLRAAFKKVESFKA | 1 (yes)
MNLDDKSLFLDAMEDVQPLKRATDVHWHPTRNQRAPQRIDTLQLDNFLTTGFLDIIPLSQPLEFRREGLQHGVLDKLRSGKYPQQASLNLLRQPVEECRKMVFSFIQQALADGLRNVLIIHGKGRDDKSHANIVRSYVARWLTEFDDVQAYCTALPHHGGSGACYVALRKTAQAKQENWERHAKRSR | 0 (no)

----------
total protein half-life in vivo overview
# assay-info: total protein half-life in vivo (active degradation + dilution); higher = more stable protein
# test-settings: wild type E. coli NCM3722; growth: N-lim chemostat; doubling time 12 h
attribute-measured: total protein half-life in vivo (h)

construct-sequence | observed-result
MGLMNAFDSQTEDSSPAIGRNLRSRPLARKKLSEMVEEELEQMIRRREFGEGEQLPSERELMAFFNVGRPSVREALAALKRKGLVQINNGERARVSRPSADTIIGELSGMAKDFLSHPGGIAHFEQLRLFFESSLVRYAAEHATDEQIDLLAKALEINSQSLDNNAAFIRSDVDFHRVLAEIPGNPIFMAIHVALLDWLIAARPTVTDQALHEHNNVSYQQHIAIVDAIRRHDPDEADRALQSHLNSVSATWHAFGQTTNKKK [P0A8W0] | 5.27
MSVIKMTDLDLAGKRVFIRADLNVPVKDGKVTSDARIRASLPTIELALKQGAKVMVTSHLGRPTEGEYNEEFSLLPVVNYLKDKLSNPVRLVKDYLDGVDVAEGELVVLENVRFNKGEKKDDETLSKKYAALCDVFVMDAFGTAHRAQASTHGIGKFADVACAGPLLAAELDALGKALKEPARPMVAIVGGSKVSTKLTVLDSLSKIADQLIVGGGIANTFIAAQGHDVGKSLYEADLVDEAKRLLTTCNIPVPSDVRVATEFSETAPATLKSVNDVKADEQILDIGDASAQELAEILKNAKTILWNGPVGVFEFPNFRKGTEIVANAIADSEAFSIAGGGDTLAAIDLFGIADKISYISTGGGAFLEFVEGKVLPAVAMLEERAKK [P0A799] | 8.6

// provenance: the supplement of paper PMC11246515
